Test: Physical stability; visual assessment (color, turbidity, phase separation)
Assay type: physicochemical
Parameters: key: ++: no discernible change with respect to color, turbidity or phase separation; +: marginal change in color number, somewhat increased Tyndall effect but no turbidity; 0: easily discernible increase in color number and moderate turbidity−no phase separation; −: turbidity and change in color number readily discernible by visual assessment; −−: strong color change with strong turbidity and incipient phase separation
Conditions: Polymer P1 with stabilizer
quantity: Physical stability, 60 d 40° C.*

molecule="CCCCCCCCCC[N+](C)(C)CCCCCCCCCC.[Cl-] [DDAC, didecyldimethylammonium chloride]" measured_value=++
molecule="CCCCCCCCn1sccc1=O [OIT, octylisothiazolinone]" measured_value=−−
molecule="CCCCCCCCCCCCCCCC[N+](C)(C)Cc1ccccc1.[Cl-] [Polymer 16-BAC, cetylalkonium chloride]" measured_value=+
molecule="CCCCCCCCCCCCCCCC[n+]1ccccc1 [CPC, cetylpyridinium chloride]" measured_value=+
